Tested on: SW-480 cells
Assay: Cell growth inhibition (CellTiter-Glo), SW-480 colorectal cells with activated Ras
Type: cell-based, human
Settings: ratio IC50 Caco-2 (WT Ras) / IC50 SW-480 (Ras activated)
satisfied means recorded Selectivity Caco-2/SW-480 is 10 or above; not satisfied means it is below 10.

>  <COMPOUND>
COc1ccc2c(c1)C(CC(=O)Nc1cccnc1)=C(C)/C2=C/c1cc(OC)c(O)c(OC)c1 [Compound 004]

>  <CLASS NAME>
not satisfied

$$$$
>  <COMPOUND>
COc1cc(/C=C2/C(C)=C(CC(=O)NCc3ccccn3)c3cc(F)ccc32)cc(OC)c1O [Compound 010]

>  <CLASS NAME>
satisfied

$$$$
>  <COMPOUND>
COc1ccc2c(c1)C(CC(=O)NCc1cccnc1)=C(C)/C2=C/c1cc(OC)c(O)c(OC)c1 [Compound 009]

>  <CLASS NAME>
satisfied

$$$$
>  <COMPOUND>
COc1cc(/C=C2/C(C)=C(CC(=O)NCc3cccnc3)c3cc(F)ccc32)cc(OC)c1O [Compound 011]

>  <CLASS NAME>
not satisfied

$$$$
>  <COMPOUND>
COc1ccc2c(c1)C(CC(=O)NCc1ccco1)=C(C)/C2=C/c1cc(C)c(O)c(C)c1 [Compound 001]

>  <CLASS NAME>
not satisfied

$$$$
>  <COMPOUND>
COc1cc(/C=C2/C(C)=C(CC(=O)NCc3ccco3)c3cc(F)ccc32)cc(OC)c1O [Compound 007]

>  <CLASS NAME>
not satisfied

$$$$
>  <COMPOUND>
COc1ccc2c(c1)C(CC(=O)NCc1ccco1)=C(C)/C2=C/c1cc(OC)c(O)c(OC)c1 [Compound 006]

>  <CLASS NAME>
satisfied

$$$$
